test system: Escherichia coli TOP10; experiment: shrunken log2 fold change of peptide-encoding DNA abundance (4.5 h post-induction vs induction); higher = less antimicrobial activity (less host growth inhibition); conditions: time post-induction: 4.5 h; library: site-saturation at positions 5, 18, 19, 20;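 further: peptides expressed intracellularly from a pBAD plasmid library in pooled LB shake-flask culture, induced with 0.3% L-arabinose, DNA abundance read by NGS, three biological replicates, DESeq2 with apeglm shrinkage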
Hi, to clarify the labels: true (1) covers shrunken log2 fold change from -0.01 upward, false (0) covers anything below -0.01.

RRIRERPPRLPRPRPRPVNYPRP = false (0)
RRIRMRPPRLPRPRPRPILDPRP = false (0)
RRIRGRPPRLPRPRPRPRGRPRP = true (1)
RRIRYRPPRLPRPRPRPEADPRP = true (1)
RRIRMRPPRLPRPRPRPVKQPRP = true (1)
RRIRLRPPRLPRPRPRPYWMPRP = false (0)
RRIRKRPPRLPRPRPRPDSKPRP = false (0)
RRIRRRPPRLPRPRPRPSWQPRP = true (1)
RRIRLRPPRLPRPRPRPNLAPRP = false (0)
RRIRLRPPRLPRPRPRPWFVPRP = false (0)
RRIRFRPPRLPRPRPRPTSNPRP = false (0)
RRIRDRPPRLPRPRPRPHSPPRP = false (0)
RRIRSRPPRLPRPRPRPGSTPRP = true (1)
RRIRLRPPRLPRPRPRPIRIPRP = false (0)
RRIRIRPPRLPRPRPRPYGEPRP = false (0)
RRIRSRPPRLPRPRPRPYEDPRP = false (0)
RRIRNRPPRLPRPRPRPHIFPRP = false (0)
RRIRSRPPRLPRPRPRPVWMPRP = true (1)
RRIRHRPPRLPRPRPRPIDMPRP = true (1)
RRIRKRPPRLPRPRPRPTFVPRP = true (1)
RRIRDRPPRLPRPRPRPQVWPRP = true (1)
RRIRDRPPRLPRPRPRPDKMPRP = true (1)
RRIRWRPPRLPRPRPRPDMSPRP = false (0)
RRIRLRPPRLPRPRPRPMDNPRP = false (0)
RRIRIRPPRLPRPRPRPGTPPRP = false (0)
RRIRHRPPRLPRPRPRPSVVPRP = true (1)
RRIRWRPPRLPRPRPRPNTIPRP = false (0)
RRIRARPPRLPRPRPRPCQLPRP = false (0)
RRIRVRPPRLPRPRPRPGPKPRP = true (1)
RRIRERPPRLPRPRPRPAWKPRP = false (0)
RRIRWRPPRLPRPRPRPTFFPRP = true (1)
RRIRIRPPRLPRPRPRPDINPRP = false (0)
